target: Mitogen-activated protein kinase 8 (Homo sapiens); assay: inhibition of JNK1a1 at 10 uM
Sequence (P45983 whole entry): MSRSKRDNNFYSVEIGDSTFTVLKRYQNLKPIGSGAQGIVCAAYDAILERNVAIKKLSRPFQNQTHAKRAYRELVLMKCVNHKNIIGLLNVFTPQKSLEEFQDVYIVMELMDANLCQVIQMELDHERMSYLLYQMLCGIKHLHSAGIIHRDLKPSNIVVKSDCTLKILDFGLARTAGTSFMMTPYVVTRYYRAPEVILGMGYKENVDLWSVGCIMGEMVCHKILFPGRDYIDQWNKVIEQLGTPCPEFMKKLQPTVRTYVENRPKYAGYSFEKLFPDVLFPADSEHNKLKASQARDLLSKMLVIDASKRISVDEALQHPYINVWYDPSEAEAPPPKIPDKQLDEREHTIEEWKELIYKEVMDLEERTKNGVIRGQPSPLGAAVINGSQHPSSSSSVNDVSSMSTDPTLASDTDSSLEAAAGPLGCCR
property: pIC50
Remember, pIC50 is on a log scale: it is -log10 of the molar concentration.

-- ask What does the record list as pIC50 for `COc1ccc(Cn2ncc(NC(=O)c3cc(NC(=O)Nc4ccc(Cl)c(C(F)(F)F)c4)ccc3C)c2N)cc1` ?
-- reply 5.80

###

system: Serine/threonine-protein kinase B-raf (Homo sapiens), P15056 [V600E]; test: Inhibition of B-Raf V600E mutant
Sequence (P15056 whole entry V600E): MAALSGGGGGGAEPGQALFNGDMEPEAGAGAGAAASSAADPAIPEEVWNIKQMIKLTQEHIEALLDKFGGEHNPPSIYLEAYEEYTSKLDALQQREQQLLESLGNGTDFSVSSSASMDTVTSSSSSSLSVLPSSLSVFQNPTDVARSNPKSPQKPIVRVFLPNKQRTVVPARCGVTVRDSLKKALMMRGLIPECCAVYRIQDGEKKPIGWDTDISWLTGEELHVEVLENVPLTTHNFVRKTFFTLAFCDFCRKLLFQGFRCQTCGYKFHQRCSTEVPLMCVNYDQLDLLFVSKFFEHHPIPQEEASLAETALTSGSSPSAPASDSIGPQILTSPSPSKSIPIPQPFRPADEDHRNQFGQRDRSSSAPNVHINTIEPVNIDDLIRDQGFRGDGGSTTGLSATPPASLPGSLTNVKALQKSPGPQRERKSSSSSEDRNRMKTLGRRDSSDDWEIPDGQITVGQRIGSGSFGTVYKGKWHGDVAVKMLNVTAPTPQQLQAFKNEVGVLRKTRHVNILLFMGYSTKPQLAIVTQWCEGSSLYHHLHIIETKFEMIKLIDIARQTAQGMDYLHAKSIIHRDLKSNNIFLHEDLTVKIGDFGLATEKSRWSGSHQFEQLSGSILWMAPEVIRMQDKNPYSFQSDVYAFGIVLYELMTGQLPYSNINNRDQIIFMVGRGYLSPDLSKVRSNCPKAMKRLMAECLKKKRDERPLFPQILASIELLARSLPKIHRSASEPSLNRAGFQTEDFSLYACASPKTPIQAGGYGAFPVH
property: pIC50
When answering, recall that pIC50 equals minus log10 of the concentration in mol/L, and write that number alone.

-- ask Could you share which pIC50 value was measured for `O=C1Nc2ccc(I)cc2C1=Cc1cc(Br)c(O)c(Br)c1` ?
-- reply 8.41
